- TEST SUMMARY: Half life in mouse at 2 mg/kg, po
- Type: ADME, organism-based
- Parameters: dose 2 mg/kg, route oral
- MEASUREMENT CONDITIONS: in vivo
Measured half-life, listed per entry for reference.
// units = h; emit number, no label

| SMILES | OUTPUT UNIT | half-life |
| --- | --- | --- |
| CCCC[C@@H]1C[C@H](C23C[C@@H]4[C@H](C)CC[C@H]4[C@@]4(C=O)CC2C=C(C(C)C)[C@@]34C(=O)O)O[C@H]1CN1CCC(N2C[C@@H](C)O[C@@H](C)C2)CC1 | h | 3.4 |

Kindly review the next compound as well.
Query string: Name the recorded half-life of the item CO[C@H]1[C@@H](O)[C@H](O)[C@H](OC[C@@]23C[C@@H]4[C@H](C)CC[C@H]4[C@@]4(C=O)CC2C=C(C(C)C)[C@@]34C(=O)O)O[C@@H]1C in your answer.
Result string: 0.33
